Assay: in vitro
Settings: African green monkey, Vero E6 Cytotoxicity CC50 (μM)
readout_label: CC50 at 5 days

Please review the entries below; each comes with its answer.
>>> value_measured("C[C@H](NC(=O)C(c1cccnc1)N(C(=O)c1ccco1)c1ccc(-c2ccccc2)cc1)c1ccccc1 (stereo partly drawn) [Jun8-76-3]")
"> 200 µM"
>>> value_measured("C[C@H](NC(=O)C(c1cccnc1)N(C(=O)c1c[nH]cn1)c1ccc(-c2ccccc2)cc1)c1ccccc1 (stereo partly drawn) [Jun8-90-3]")
"129 µM"
>>> value_measured("C[C@H](NC(=O)C(c1cnccn1)N(C(=O)c1ccco1)c1ccc(-c2ccccc2)cc1)c1ccccc1 (stereo partly drawn) [Jun9-4-4]")
"> 200 µM"
>>> value_measured("C[C@H](NC(=O)C(c1cccnc1)N(C(=O)c1ccco1)c1ccc(-n2cccc2)cc1)c1ccccc1 (stereo partly drawn) [Jun8-76-5]")
"> 200 µM"

### Prompt # get_value(readout='CC50 at 5 days', item= O=C(NCCCc1ccccc1)C(c1cccnc1)N(C(=O)c1ccco1)c1ccc(-c2ccccc2)cc1 (stereo not drawn) [Jun9-12-2] )
### Response > 200 µM

### Prompt Same again, this time with C[C@H](NC(=O)C(c1cnccn1)N(C(=O)c1c[nH]cn1)c1ccc(-c2ccccc2)cc1)c1ccccc1 (stereo partly drawn) [Jun9-5-2]
### Response 148 µM

The origin of these recorded values is patent US20240083885A1.
